- SUBJECT OF TEST: Voltage-gated potassium channel, KQT; KCNQ2(Kv7.2)/KCNQ3(Kv7.3) (Homo sapiens) (UniProt O43526+O43525)
- ASSAY COMMENT: Agonist activity at human Kv7.2/Kv7.3 expressed in HEK293 cells assessed as drug concentration that doubles the conductance at voltage leading to 15% channel activation at holding potential of at -80 mV by whole cell patch clamp electrophysiology assay
- Format: cell-based
QUANTITY: EC2 (µM)
Form entry: value (µM) — number only.

Data request: Indicate the recorded EC2 value for this compound: CCOC(=O)Nc1ccc(NCc2ccc(F)cc2)cc1N
Data returned: 0.33

Data request: Indicate the recorded EC2 value for this compound: CCOC(=O)Nc1ccc(NCc2ccc(C(F)(F)F)nc2)c(F)c1N
Data returned: 0.61

Data request: Indicate the recorded EC2 value for this compound: CC(C)OC(=O)Nc1ccc(NCc2ccc(C(F)(F)F)cc2)c(F)c1N
Data returned: 0.16

Data request: Indicate the recorded EC2 value for this compound: CCOC(=O)Nc1ccc(NCc2ccc(F)cc2)nc1N
Data returned: 2

Data request: Indicate the recorded EC2 value for this compound: CCOC(=O)Nc1ccc(NCc2ccc(C(F)(F)F)cn2)c(F)c1N
Data returned: 0.66

Data request: Indicate the recorded EC2 value for this compound: Nc1c(F)c(NCc2ccc(C(F)(F)F)cc2F)cc(F)c1NC(=O)OC1CC1
Data returned: 1.47
